Below, each entry is listed alongside its reported protein stability index.
B1: TMEM192 (parent)
chain: ILGKVILWILHLLLECYIQYHHSK

Variants of: B1
Assay: protein stability index of a GFP-peptide fusion (GPS, HEK-293T) (PSI 1-6); higher = more stable;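 further: lentivirally expressed fusions sorted by FACS into six bins by GFP to DsRed ratio, PSI derived from sequencing read proportions per bin multiplied by bin number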
Conditions: c terminus: a fixed tail appended
# respond with the number and nothing more

Consider the following illustrative entries.
[[record]]
residue_codes = "ILGKVILWILHLLLECYIQYHHSM [K24M]"
reported_endpoint = "protein stability index"
observed = 3.05

[[record]]
residue_codes = "ILGKVILWINHLLLECYIQYHHSK [L10N]"
reported_endpoint = "protein stability index"
observed = 3.04


Continue with the variant presented below.
**Q:** Query (variant): ILGKVYLWILHLLLECYIQYHHSK [I6Y] ; field requested: protein stability index
**A:** 2.98
